tested on: UACC-257 melanoma; assay: NCI tumour cell line growth inhibition, 48 h
quantity measured: GI50

{"columns": ["molecule", "quantity measured", "measured value"],
 "data": [
  ["COc1ccc2[nH]c(C(=O)OCc3ccc4c(Br)cc(Br)c(O)c4n3)cc2c1", "GI50", "1.38 µM"],
  ["CC[O-].CC[O-].O=C1C=C([O-])C(=O)c2ccccc21.O=C1C=C([O-])C(=O)c2ccccc21.[Ti+4]", "GI50", "> 27.9 µM"],
  ["O=C1NC(=Nc2ccc(O)cc2)S/C1=C\\c1cccs1", "GI50", "> 100 µM"],
  ["O=C(O)c1ccc(CSc2nc3ccccc3[nH]2)cc1", "GI50", "> 100 µM"],
  ["COc1cccc2nc(Nc3cccc(NC(=O)c4ccc(N5CCN(C)CC5)c(C(F)(F)F)c4)c3)ccc12", "GI50", "1.36 µM"]
]}

Which measured GI50 belongs to O=C(/C=C(/C=C/c1cccc2[nH]ccc12)OB(F)F)/C=C/c1cccc2[nH]ccc12 , tested on UACC-257 melanoma?
2.15 µM

Try this molecule too: O=S(=O)(NCCNc1nccc(-c2c(-c3ccc(F)cc3)nc3sccn23)n1)c1ccc(O)cc1
5.84 µM

Try this molecule too: CCOC(=O)c1c(C)n([O-])c2cc(F)c(F)cc2[n+]1=O
1.7 µM

Try this molecule too: c1cc[n+](Cc2c3ccccc3cc3c2ccc2ccccc23)cc1
2.34 µM
